- measured-target: α1β3γ2 benzodiazepine receptor GABA(A) isoform (UniProt P14867+P18507)
- Sequence (P14867 1-456): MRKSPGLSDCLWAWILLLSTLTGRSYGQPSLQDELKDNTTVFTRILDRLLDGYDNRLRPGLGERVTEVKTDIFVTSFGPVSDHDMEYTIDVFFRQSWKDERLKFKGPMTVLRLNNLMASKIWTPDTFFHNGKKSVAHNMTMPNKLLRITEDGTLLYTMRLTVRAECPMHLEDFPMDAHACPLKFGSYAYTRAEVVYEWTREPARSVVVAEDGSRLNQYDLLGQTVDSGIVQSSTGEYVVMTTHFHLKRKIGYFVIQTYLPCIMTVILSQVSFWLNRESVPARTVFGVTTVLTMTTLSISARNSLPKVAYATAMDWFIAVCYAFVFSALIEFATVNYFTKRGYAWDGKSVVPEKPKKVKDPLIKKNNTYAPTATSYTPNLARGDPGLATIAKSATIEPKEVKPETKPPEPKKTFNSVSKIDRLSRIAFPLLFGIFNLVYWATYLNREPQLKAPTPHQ
- Sequence (P18507 1-475): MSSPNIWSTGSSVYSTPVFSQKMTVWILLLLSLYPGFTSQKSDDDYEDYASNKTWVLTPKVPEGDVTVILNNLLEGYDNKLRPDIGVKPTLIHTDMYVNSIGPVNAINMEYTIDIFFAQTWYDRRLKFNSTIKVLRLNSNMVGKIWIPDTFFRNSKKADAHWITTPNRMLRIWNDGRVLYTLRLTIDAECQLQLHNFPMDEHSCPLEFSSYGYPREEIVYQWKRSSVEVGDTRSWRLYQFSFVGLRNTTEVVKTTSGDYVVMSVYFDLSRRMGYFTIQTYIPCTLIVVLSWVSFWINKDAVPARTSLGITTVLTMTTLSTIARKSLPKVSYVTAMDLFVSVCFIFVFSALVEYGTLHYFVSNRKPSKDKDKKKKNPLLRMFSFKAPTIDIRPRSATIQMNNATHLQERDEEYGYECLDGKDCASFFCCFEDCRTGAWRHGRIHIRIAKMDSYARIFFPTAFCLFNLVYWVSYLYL
- test-description: Radioligand competition binding, α1β3γ2 BzR/GABA(A) isoform
- Design: Ki α1; means of two determinations; Ki α1; α1; species or system human and rat
- setup-conditions: read-out: α1; untitled table of lead compounds, unit inferred
pKi: −log10 of the molar value.
assay-readout: pKi

* CCOC(=O)c1ncn2c1CN=C(c1ccccc1)c1cc(-c3ccccc3)ccc1-2 | < 5.70
* CCc1ccc2c(c1)C(=O)N(C)Cc1c(C(=O)OCCCOC(=O)c3ncn4c3CN(C)C(=O)c3cc(CC)ccc3-4)ncn1-2 | 5.62

// next entry
Fill in reported pKi for this entry: COCc1ncn2c1CN(C)C(=O)c1cc(Cl)ccc1-2
< 6.52

====

- measured-target: α5β3γ2 benzodiazepine receptor GABA(A) isoform (UniProt P18507+P31644)
- test-description: Radioligand competition binding, α5β3γ2 BzR/GABA(A) isoform
- Design: Ki α5; means of two determinations; Ki α5; α5; other: text; species or system human and rat
- setup-conditions: read-out: binding potency at α5 subtypes
assay-readout: Ki (nM)
State the answer as a number, implicitly in nM.

Fill in reported Ki for this entry: CCOC(=O)c1ncn2c1CN=C(c1ccccc1)c1cc(-c3ccccc3)ccc1-2 [DM-I-81]
174

====

- measured-target: α5β3γ2 benzodiazepine receptor GABA(A) isoform (UniProt P18507+P31644)
- test-description: Radioligand competition binding, α5β3γ2 BzR/GABA(A) isoform
- Set-up: Ki α5; means of two determinations; Ki α5; α5; other: text; species or system human and rat
- setup-conditions: Table I; means of two determinations; read-out: Ki α5
assay-readout: Ki
A bare number is not enough; add the unit after it.

Fill in reported Ki for this entry: C#Cc1ccc2c(c1)C(=O)N1CC[C@@H]1c1c(-c3nc(C)no3)ncn1-2 [RY-I-29]
157 nM

====

- measured-target: α2β3γ2 benzodiazepine receptor GABA(A) isoform (UniProt P18507+P47869)
- test-description: Radioligand competition binding, α2β3γ2 BzR/GABA(A) isoform
- Design: species or system human and rat
- setup-conditions: read-out: α2; untitled table of lead compounds, unit inferred
pKi: −log10 of the molar value.
assay-readout: pKi

Please review the following examples before continuing.
- COCc1ncn2c1CN(C)C(=O)c1cc(Cl)ccc1-2: < 6.52
- CCOC(=O)c1ncn2c1CN=C(c1ccccc1)c1cc(-c3ccccc3)ccc1-2: < 5.70

Fill in reported pKi for this entry: CCc1ccc2c(c1)C(=O)N(C)Cc1c(C(=O)OCCCOC(=O)c3ncn4c3CN(C)C(=O)c3cc(CC)ccc3-4)ncn1-2
5.22
